Recorded MFI for the following binders
TGT: T1, native membrane bound porcine CD163 on primary porcine alveolar macrophages (porcine, UniProt Q2VL90 47-1115)
T1 construct: also called PAM CD163-WT; pPAM
T1 sequence: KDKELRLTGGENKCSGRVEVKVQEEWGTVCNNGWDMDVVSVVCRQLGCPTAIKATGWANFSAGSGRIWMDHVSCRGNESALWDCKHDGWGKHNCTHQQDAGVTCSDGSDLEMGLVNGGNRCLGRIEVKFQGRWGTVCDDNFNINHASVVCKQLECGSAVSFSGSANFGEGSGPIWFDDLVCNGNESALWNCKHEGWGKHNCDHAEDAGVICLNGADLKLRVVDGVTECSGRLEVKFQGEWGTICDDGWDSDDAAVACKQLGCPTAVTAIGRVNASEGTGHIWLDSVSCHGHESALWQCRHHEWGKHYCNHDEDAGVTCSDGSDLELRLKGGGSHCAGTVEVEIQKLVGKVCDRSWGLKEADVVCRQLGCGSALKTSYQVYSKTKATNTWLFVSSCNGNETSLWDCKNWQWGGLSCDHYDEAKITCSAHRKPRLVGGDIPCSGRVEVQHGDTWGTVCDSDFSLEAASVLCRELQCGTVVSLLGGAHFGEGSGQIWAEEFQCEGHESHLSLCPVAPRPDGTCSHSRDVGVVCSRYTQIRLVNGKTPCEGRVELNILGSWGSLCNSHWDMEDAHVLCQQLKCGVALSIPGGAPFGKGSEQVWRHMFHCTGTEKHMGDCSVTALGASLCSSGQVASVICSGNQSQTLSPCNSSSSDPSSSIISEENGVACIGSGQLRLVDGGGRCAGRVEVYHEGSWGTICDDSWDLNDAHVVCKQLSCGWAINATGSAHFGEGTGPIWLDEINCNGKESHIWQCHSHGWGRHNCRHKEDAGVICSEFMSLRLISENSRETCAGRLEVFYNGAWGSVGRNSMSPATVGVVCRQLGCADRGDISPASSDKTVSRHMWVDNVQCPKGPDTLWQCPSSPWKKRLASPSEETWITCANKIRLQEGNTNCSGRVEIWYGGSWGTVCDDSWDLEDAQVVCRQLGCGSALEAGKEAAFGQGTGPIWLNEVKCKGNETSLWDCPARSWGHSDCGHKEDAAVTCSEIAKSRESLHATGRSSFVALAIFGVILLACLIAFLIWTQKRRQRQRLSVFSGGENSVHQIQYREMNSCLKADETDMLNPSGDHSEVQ
EXPERIMENT_DESCRIPTION: flow cytometry, PAM CD163-WT, 4C

BINDER	MFI
VHH 017 (3D03) (VHH, Llama single domain antibody; also called 29(#17); VHCDR3 29(#17); not shown: tags: c-myc tag in periplasmic extract (ELISA, FACS); FLAG and His tags in purified VHH (SPR, infection assays)) VHH: QLQLVESGGGLVQPGGSLRLSCAASGFTLDDYTIGWFRQAPGKEREGVSCINSITSNTYYADSVKGRFTISRDNAKNTVYLQMNSLTAEDTAIYYCAADSGLFSGSSCLKYRAMRFGSWGQGTQVTVSS	13500 MFI
VHH 023 (4E10) (VHH, Llama single domain antibody; also called 70(#23); VHCDR3 70(#23); not shown: tags: c-myc tag in periplasmic extract (ELISA, FACS); FLAG and His tags in purified VHH (SPR, infection assays)) VHH: QVQLVESGGGLVQAGGSLRLSCVASSRTSSTYAMGWFRQGPGKERDFVAIISFGGTFYADSVKGRFTISRDNAKNTVYLQMNSLKPEDTAVYYCAAGRTLSKRADSYASWGQGTQVTVSS	1390 MFI
VHH 020 (3H11) (VHH, Llama single domain antibody; also called 48(#20); VHCDR3 48(#20); not shown: tags: c-myc tag in periplasmic extract (ELISA, FACS); FLAG and His tags in purified VHH (SPR, infection assays)) VHH: QVQLQESGGGLVQVGGSLRLSCVASGRTPSRYVMGWFRQAPGQEREFVAGIAWSGRAPYADSVKGRFVISRDSAKNTVYLQMNSLKSEDTGVYYCAGGEGAILWTTPGAYNYWGQGTQVTVSS	14000 MFI
VHH 016 (2H11) (VHH, Llama single domain antibody; also called 77(#16); VHCDR3 77(#16); not shown: tags: c-myc tag in periplasmic extract (ELISA, FACS); FLAG and His tags in purified VHH (SPR, infection assays)) VHH: EVQLVESGGGLVQAGGSLRLSCAASGRTFAPGSMGWFRQAPGKEREFVAAHRWSGSAYYADYADSVEGRFTISRDYAKNMVYLQMNSLKPGDTAVYYCAAGVGSAAQYTYWGRGTQVTVSS	3210 MFI
VHH 018 (3E01) (VHH, Llama single domain antibody; also called 49(#18); VHCDR3 49(#18); not shown: tags: c-myc tag in periplasmic extract (ELISA, FACS); FLAG and His tags in purified VHH (SPR, infection assays)) VHH: QVQLQESGGGLVQVGGSLRLSCVASGRAPSRYVMGWFRQAPGQEREFVAGIAWSGRAPYADSVKGRSTISRDNAKNTVYLQMNSLKPEDTGVYYCAGGEGAIRWTTLDAYDYWGQGTQVTVSS	5210 MFI
VHH 011 (2B06) (VHH, Llama single domain antibody; also called 57(#11); VHCDR3 57(#11); not shown: tags: c-myc tag in periplasmic extract (ELISA, FACS); FLAG and His tags in purified VHH (SPR, infection assays)) VHH: EVQLVESGGGLVQAGGSLRLSCAASGRTLSVYGTGWFRQAPGKEREFVAGISGTTGSTLYADSVKGRFTISRDNAKNTVYLQMNSLKSEDTALYYCAAGGRVYITTSSWAYWGQGTQVTVSS	4270 MFI
VHH 002 (1B04) (VHH, Llama single domain antibody; also called 76(#2); VHCDR3 76(#2); not shown: tags: c-myc tag in periplasmic extract (ELISA, FACS); FLAG and His tags in purified VHH (SPR, infection assays)) VHH: QVQLVESGGGLVQAGGSLRLSCAASGLTFVTYSMGWFRQAPGKEREFVAAHRWSGSAYYAEHADSVEGRFTISRDYAKNMLYLQMNSLKHEDTAVYYCAAGVGSAAQYRYWGRGTQVTVSS	1980 MFI
VHH 008 (1H01) (VHH, Llama single domain antibody; also called 78(#8); VHCDR3 78(#8); not shown: tags: c-myc tag in periplasmic extract (ELISA, FACS); FLAG and His tags in purified VHH (SPR, infection assays)) VHH: QVQLVESGGGLVQAGGSLRLSCAASGRTFGTYSMGWFRQAPGKEREFVAAHRWSGSAYYAEHADSVEGRFTISRDYAKNMLYLQMNSLKHEDTAVYYCAAGVGSEAQYRYWGRGTQVTVSS	2370 MFI

Value source: patent US20230203185A1
